Biological target: SIX1 homeodomain (reference allele) (human, UniProt Q15475 108-198)
Sequence: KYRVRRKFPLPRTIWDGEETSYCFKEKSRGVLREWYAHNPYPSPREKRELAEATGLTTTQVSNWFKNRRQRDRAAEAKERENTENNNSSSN
Test: universal protein binding microarray; Universal all-10-mer PBM (8x60K, AMADID 030236), 300 nM GST-tagged protein, Alexa Fluor 488 anti-GST; buffer, salt, pH and temperature not stated (as in Berger); high values mean tight binding
Conditions: protein: ivt; tags: N-terminal GST; dsDNA, one strand shown
In all, about 33,000 sequences were measured (“e-score”: median about -0.053, highest 2% from about 0.38 on). The sample holds the highest values, similar sequences and a random draw of the others, so the mix is not that of the screen.
metric: binding signal (E-score)

1) CTTATACC : 0.275
2) GTGATATA : 0.419
3) AGATATCT : 0.385
4) AAATATCT : 0.157
5) CTTATATC : 0.292
6) AGATATTG : 0.311
7) CGCTATCA : 0.34
8) AGAGATCT : 0.198
9) GGTCGATA : 0.271
10) CTGAGATA : 0.248
11) AGTGAGCC : 0.225
12) AGATATGG : 0.335
13) TGTATACA : 0.319
14) GGTATACA : 0.384
15) AGTATACA : 0.294
16) GCGATATA : 0.399
17) GGTATAAC : 0.301
18) GGTATAGA : 0.301
19) CTAATATC : 0.339
20) ATATTACC : 0.259
21) CGTATATA : 0.253
22) GGATAATA : 0.328

====

Molecular target: SIX1 homeodomain (reference allele) (human, UniProt Q15475 108-198)
Sequence: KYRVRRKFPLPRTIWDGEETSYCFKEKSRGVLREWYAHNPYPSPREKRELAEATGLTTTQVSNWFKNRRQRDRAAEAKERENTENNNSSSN
Test: universal protein binding microarray; Universal all-10-mer PBM (8x60K, AMADID 030236), 300 nM GST-tagged protein, Alexa Fluor 488 anti-GST; buffer, salt, pH and temperature not stated (as in Berger); high values mean tight binding
Conditions: protein: ivt; tags: N-terminal GST; dsDNA, one strand shown
The full ranking holds about 33,000 sequences; the median of “e-score” is about -0.053, and the highest 2% start at about 0.38. What follows is part of a selection rich in the highest values, with near analogues and random picks from the rest.
metric: binding signal (E-score)

1) CTATAATA : 0.259
2) GAAGTATC : 0.407
3) TAAGTATA : 0.218
4) AAAGTATA : 0.173
5) GATACAAA : 0.252
6) CGAAGATA : 0.325
7) AGCAGTAT : 0.313
8) CTTGTATA : 0.213
9) GATAGTAC : 0.212
10) GAGACGCC : 0.155
11) ATCTATTC : 0.24
12) GTGTCCAA : 0.221
13) CAAGTATC : 0.378
14) GATACGTA : 0.429
15) AAAATCCG : 0.175
16) ATATTGTA : 0.294
17) GAACTATC : 0.23
18) GTATATTA : 0.267
19) GAAGTATA : 0.261
20) CCAAGATC : 0.22
21) GATACGCA : 0.421
22) CTATCGAA : 0.228

====

Target: SIX1 homeodomain (reference allele) (human, UniProt Q15475 108-198)
Sequence: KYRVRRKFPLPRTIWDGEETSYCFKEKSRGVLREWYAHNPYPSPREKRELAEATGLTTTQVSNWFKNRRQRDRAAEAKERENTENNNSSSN
Assay: universal protein binding microarray; Universal all-10-mer PBM (8x60K, AMADID 030236), 300 nM GST-tagged protein, Alexa Fluor 488 anti-GST; buffer, salt, pH and temperature not stated (as in Berger); high values mean tight binding
Details: protein: ivt; tags: N-terminal GST; dsDNA, one strand shown
In all, about 33,000 sequences were measured (“e-score”: median about -0.053, highest 2% from about 0.38 on). For the sample, the highest values were picked, then their nearest neighbours and some sequences at random.
Assign TRUE to entries whose binding signal meets or exceeds 0.2 E-score; assign FALSE to the rest.

1) AATACGAG : TRUE
2) GAATACCA : TRUE
3) ACGGTATC : TRUE
4) ACGAATAT : FALSE
5) GATCTGAC : TRUE
6) GTATACCA : TRUE
7) ATATAATA : TRUE
8) CGGTGTCA : TRUE
9) ATAGTGCA : FALSE
10) GGATACCA : TRUE
11) TACAGATA : TRUE
12) ACACCTCG : TRUE
13) ACGTCTCA : TRUE
14) GAGGAATA : TRUE
15) ATGGAGGA : FALSE
16) ATGCAATA : FALSE
17) CCGCTATC : TRUE
18) TACGGATA : TRUE
19) ACGGTATA : TRUE
20) CGGTGTAA : TRUE

====

Biological target: SIX1 homeodomain (reference allele) (human, UniProt Q15475 108-198)
Sequence: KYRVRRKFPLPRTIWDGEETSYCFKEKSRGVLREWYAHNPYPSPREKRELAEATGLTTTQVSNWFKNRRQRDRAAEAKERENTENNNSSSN
Assay: universal protein binding microarray; Universal all-10-mer PBM (8x60K, AMADID 030236), 300 nM GST-tagged protein, Alexa Fluor 488 anti-GST; buffer, salt, pH and temperature not stated (as in Berger); high values mean tight binding
Conditions: protein: ivt; tags: N-terminal GST; dsDNA, one strand shown
Whole data set: some 33,000 sequences, median “e-score” near -0.053, cut for the highest 2% near 0.38. Many of the other results were omitted from the sample, so the highest values are more common in it than they were.
Lab note: compare binding signal with 0.2 E-score, writing true (1) if less and false (0) if equal or more.

1. TGATGCCA : true (1)
2. ATCCGCGA : false (0)
3. CGGTATCA : false (0)
4. TACATGTA : true (1)
5. ATCCAAGA : true (1)
6. TATCTCGA : false (0)
7. GATCAAGA : true (1)
8. CGGTATGA : false (0)
9. ATATTAGG : false (0)
10. CTATCTGA : false (0)

====

Molecular target: SIX1 homeodomain (reference allele) (human, UniProt Q15475 108-198)
Sequence: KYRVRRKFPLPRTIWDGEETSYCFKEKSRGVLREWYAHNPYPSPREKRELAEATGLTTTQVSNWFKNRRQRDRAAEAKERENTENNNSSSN
Assay: universal protein binding microarray; Universal all-10-mer PBM (8x60K, AMADID 030236), 300 nM GST-tagged protein, Alexa Fluor 488 anti-GST; buffer, salt, pH and temperature not stated (as in Berger); high values mean tight binding
Conditions: protein: ivt; tags: N-terminal GST; dsDNA, one strand shown
Whole data set: some 33,000 sequences, median “e-score” near -0.053, cut for the highest 2% near 0.38. Only a selection was taken, and the highest values are over-represented in it overall.
Reported binding signal by item:
metric: binding signal (E-score)

1) ATATAACG : 0.233
2) ACACCCAC : 0.221
3) ACACCCAA : 0.331
4) ATACCAAA : 0.317
5) AGTATTGG : 0.204
6) CACCCCAC : 0.263
7) AAACCCAT : 0.169
8) ATCGTAGA : 0.193
9) ACACCCAG : 0.278
10) ATACCAAG : 0.285
11) ATATCAAT : 0.421
12) CCGTCTAC : 0.171
13) ATACCCAT : 0.393
14) GTGGACAC : 0.182
15) AGTATAAG : 0.161
16) TGGTGACA : 0.156
17) ATACCCAA : 0.401
18) CTATCAAC : 0.29
19) ATCTCAAT : 0.183
20) ACACCCAT : 0.271
21) ATACCCAC : 0.392
22) ATACCCAG : 0.382

====

Overview of reported binding signal across a group of sequences:
Target: SIX1 homeodomain (reference allele) (human, UniProt Q15475 108-198)
Sequence: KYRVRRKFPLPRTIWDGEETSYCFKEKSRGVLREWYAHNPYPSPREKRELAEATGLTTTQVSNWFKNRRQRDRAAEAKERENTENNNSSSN
Assay: universal protein binding microarray; Universal all-10-mer PBM (8x60K, AMADID 030236), 300 nM GST-tagged protein, Alexa Fluor 488 anti-GST; buffer, salt, pH and temperature not stated (as in Berger); high values mean tight binding
Settings: protein: ivt; tags: N-terminal GST; dsDNA, one strand shown
Whole data set: some 33,000 sequences, median “e-score” near -0.053, cut for the highest 2% near 0.38. The sample holds the highest values, similar sequences and a random draw of the others, so the mix is not that of the screen.
metric: binding signal (E-score)

1. GAAGACAC : 0.21
2. CCTGATAC : 0.472
3. CCTGATAG : 0.266
4. ATACCCTC : 0.441
5. ATACAGCA : 0.221
6. ATATCTAC : 0.387
7. AGCTGATC : 0.316
8. ATCCCCAC : 0.347
9. AGTAGATC : 0.321
10. ATATCACC : 0.463
11. GGATGATA : 0.443
12. ACTGATCA : 0.181
13. ACACCCTA : 0.31
14. AGACCGAT : 0.179
15. ATACAATG : 0.248
16. ATACTAGA : 0.218
17. ATTATATA : 0.254
18. ATACCCTA : 0.452
19. ATCTCACC : 0.335
20. CGATGCAG : 0.21
21. GATAATCC : 0.34
22. AGCTCGAT : 0.227
23. ACTAATAC : 0.225
24. GCGGATTA : 0.318
25. ATATGTCA : 0.166
26. CTGTATGA : 0.187
27. ATCCCAGC : 0.221
28. CGATGATC : 0.379
29. TAATATTA : 0.161
30. ACACCCTC : 0.306
31. GATCAGTA : 0.347
32. CGCTGATC : 0.279
33. ATATTCTC : 0.269
34. AGTAATAT : 0.236
35. ATAGATGA : 0.287
36. ATCACCCC : 0.302
37. CGTTAGTA : 0.194
38. AACCTATA : 0.205
39. ATACCGGG : 0.399
40. ACTGATAG : 0.315
41. CTTAACAC : 0.151
42. CTCATCTC : 0.158
43. ATCCCCCC : 0.423
44. ATCACCCG : 0.397
45. GCTGACAC : 0.246
46. ATTATATC : 0.329
47. ATCACACA : 0.266
48. ATCGCCCG : 0.198
49. TCCGCCGA : 0.252
50. ATGATCTC : 0.327
51. ACACCTTG : 0.186
52. ATACTGAG : 0.286
53. CCCGCGGA : 0.205
54. ACTGATAT : 0.442
55. ATACCCTG : 0.439
56. AGACCGGA : 0.157
57. ATATCTAA : 0.316
58. ACTATACG : 0.247
59. ATATGTTC : 0.334
60. ATACGGGG : 0.335
61. ATCCCCGC : 0.326
62. ACACCCTG : 0.321
63. ATCCTGGG : 0.235
64. CTGTATAC : 0.338
65. AGGAATAC : 0.211
66. ACACCTTC : 0.219
67. AGATAGTG : 0.152
68. ATCACCCA : 0.308
69. ATACCGGC : 0.319
70. AAGATACT : 0.295
71. GTATCACA : 0.476
72. ACTGATAC : 0.465
73. CCTATACG : 0.153
74. ATGATCAC : 0.309
75. GATAGCAA : 0.202
76. ATACCTTC : 0.323
77. AGATGATA : 0.432
78. AGAAGATC : 0.231
79. CTATCACA : 0.311
80. ATTATATG : 0.182
81. CGATCATC : 0.317
82. ATTGAATA : 0.196
83. AGATGATC : 0.38
84. CCCGTCTA : 0.159
85. GTGTAGTA : 0.185
86. GACCATGA : 0.216
87. ATCTCACA : 0.293
88. AAAAGGAT : 0.163
89. GGATGGTA : 0.214
90. AATCGGGG : 0.181
91. ATTATAGC : 0.176
